experiment: Quantification of parent compounds and O-demethyl metabolites in rat brain, liver, kidney, serum and urine by UHPLC-HRMS after intraperitoneal injection; format: in vivo, male Sprague-Dawley rats; conditions: male, Sprague-Dawley, kidney, ip, 1 mg/kg, 1 mg/kg i.p., 15 min after injection, one sample, estimated concentration, read-out: Kidney concentration

| Molecule | concentration at 15 min |
| --- | --- |
| COC(=O)C(NC(=O)c1cn(CC2CCCCC2)c2ccccc12)C(C)C (stereo not drawn) | 36.5 ng/g |
| CC(C)C(NC(=O)c1nn(Cc2ccc(F)cc2)c2ccccc12)C(=O)O (stereo not drawn) | 12.5 ng/g |
| COC(=O)C(NC(=O)c1nn(Cc2ccc(F)cc2)c2ccccc12)C(C)C (stereo not drawn) | 42.6 ng/g |

---

assay: Quantification of parent compounds and O-demethyl metabolites in rat brain, liver, kidney, serum and urine by UHPLC-HRMS after intraperitoneal injection; format: in vivo, male Sprague-Dawley rats; settings: male, Sprague-Dawley, brain/serum, ip, 1 mg/kg i.p., 15 min, read-out: Brain/serum ratio, tissue (ng/g)/serum (ng/mL)

| Compound | Kp at 15 min |
| --- | --- |
| COC(=O)C(NC(=O)c1cn(CC2CCCCC2)c2ccccc12)C(C)C (centres unmarked) | 0.47 |
| COC(=O)C(NC(=O)c1nn(Cc2ccc(F)cc2)c2ccccc12)C(C)C (centres unmarked) | 4.38 |

---

test: Quantification of parent compounds and O-demethyl metabolites in rat brain, liver, kidney, serum and urine by UHPLC-HRMS after intraperitoneal injection; assay type: in vivo, male Sprague-Dawley rats; conditions: male, Sprague-Dawley, brain, ip, 1 mg/kg, 1 mg/kg i.p., 180 min after injection, one sample, estimated concentration, read-out: Brain concentration

| Compound | concentration at 180 min |
| --- | --- |
| COC(=O)C(NC(=O)c1nn(Cc2ccc(F)cc2)c2ccccc12)C(C)C (stereo not shown) [AMB-FUBINACA] | 2.64 ng/g |

---

assay: Quantification of parent compounds and O-demethyl metabolites in rat brain, liver, kidney, serum and urine by UHPLC-HRMS after intraperitoneal injection; type: in vivo, male Sprague-Dawley rats; conditions: male, Sprague-Dawley, urine, ip, 1 mg/kg, 1 mg/kg i.p., 180 min, read-out: Urine concentration

| Compound | Output unit | concentration at 180 min |
| --- | --- | --- |
| CC(C)C(NC(=O)c1nn(Cc2ccc(F)cc2)c2ccccc12)C(=O)O (stereo not shown) | ng/mL | 5.78 |

---

Reported Kp at 180 min values for the following molecules.
assay: Quantification of parent compounds and O-demethyl metabolites in rat brain, liver, kidney, serum and urine by UHPLC-HRMS after intraperitoneal injection; type: in vivo, male Sprague-Dawley rats; conditions: male, Sprague-Dawley, liver/serum, ip, 1 mg/kg i.p., 180 min, read-out: Liver/serum ratio, tissue (ng/g)/serum (ng/mL)
Readout type: Kp at 180 min

| Molecule | Endpoint value |
| --- | --- |
| COC(=O)C(NC(=O)c1cn(CC2CCCCC2)c2ccccc12)C(C)C (centres unmarked) | 1.18 |
| CC(C)C(NC(=O)c1nn(Cc2ccc(F)cc2)c2ccccc12)C(=O)O (centres unmarked) | 1.94 |
